Test system: Molm13
Test: cell viability relative to DMSO control (bortezomib = 0%); higher = less growth inhibition
Settings: 10 nM; 72 h
Where a name gives a salt, the structure may show the parent alone.
Note to self: cell viability under 90% means YES, ties and anything higher get NO.

Problem: Below 90% on cell viability? Entry CSc1cccc(Nc2ncc3cc(-c4c(Cl)cccc4Cl)c(=O)n(C)c3n2)c1
Solution: NO

Problem: Cool, now O=C(Nc1cccc(Cl)c1)Nc1ncc(CCNc2ncnc3ccsc23)s1 [SNS-314 Mesylate]
Solution: YES

* * *

Test system: Mv4-11
Test: cell viability relative to DMSO control (bortezomib = 0%); higher = less growth inhibition
Details: 10 nM; 72 h
Counter-ions that a name gives are not always drawn.
MEASURE: cell viability (%)
Numbers only, in %.

MOLECULE | ENDPOINT_UNIT | cell viability
O=C(O)c1cc(NCc2cc(O)ccc2O)ccc1O | % | 104
Cc1cc(Nc2cc(CN3CCOCC3)c3nc(C)c(Cc4ccc(Cl)cc4F)n3n2)n[nH]1 | % | 113
C[C@@H]1O[C@@H](Oc2cc(O)c3c(=O)c(O[C@@H]4O[C@@H](C)[C@H](O)[C@@H](O)[C@H]4O)c(-c4ccc(O)cc4)oc3c2)[C@H](O)[C@H](O)[C@H]1O | % | 105
c1cc(-c2cnn3cc(-c4ccc(OCCN5CCCCC5)cc4)cnc23)ccn1 | % | 117
CN(C)C/C=C/C(=O)Nc1cc2c(Nc3ccc(F)c(Cl)c3)ncnc2cc1O[C@H]1CCOC1 [Afatinib (BIBW2992) Dimaleate] | % | 102
CCCCCCCCCCCCC/C=C/[C@@H](O)[C@H](CO)N(C)C | % | 115
c1cc(-c2cnn3cc(-c4ccc(N5CCNCC5)cc4)cnc23)c2cccnc2c1 | % | 103
NC(=O)c1ncn([C@@H]2O[C@H](CO)[C@@H](O)[C@H]2O)c1N | % | 111
CN(C)Cc1cccc(N=C(c2ccccc2)c2c(O)[nH]c3cc(C(=O)N(C)C)ccc23)c1 | % | 111
NS(=O)(=O)c1ccc(Nc2nc(OCC3CCCCC3)c3[nH]cnc3n2)cc1 | % | 109

Look up cell viability for the entries below, preserving their order.
1. Cc1c(CN2CCN(C(=O)[C@H](C)O)CC2)sc2c(N3CCOCC3)nc(-c3cnc(N)nc3)nc12
2. COc1ccc(CNc2nc(N(CCO)CCO)nc3c2ncn3C(C)C)cc1
3. Nc1nc(O)c2ncn(CCC(CO)CO)c2n1
4. CCN(CC)CC(=O)Nc1c(C)cccc1C [Lidocaine Hydrochloride hydrate]
5. Cn1cc(/C=C2\C(=O)Nc3cccnc32)c2ccccc21
6. COc1cc(-c2cc(-c3ccc(N4CCNCC4)cc3)cnc2C)cc(OC)c1OC
7. COc1cc2ccc(=O)oc2cc1O
8. Nc1n[nH]c(N)c1N=Nc1ccc(O)cc1

Solution:
[104, 104, 104, 113, 107, 107, 110, 110]

Look up cell viability for the entries below, preserving their order.
1. O=c1cc(-c2ccc(O)cc2)oc2cc(O)c(O)c(O)c12
2. CN(c1ncccc1CNc1nc(Nc2ccc3c(c2)CC(=O)N3)ncc1C(F)(F)F)S(C)(=O)=O
3. Cn1cnc2nc(NCCO)nc(NCc3ccccc3)c21

Solution:
100
105
113

Look up cell viability for the entries below, preserving their order.
1. CC(C)c1ccc2oc3nc(N)c(C(=O)O)cc3c(=O)c2c1
2. Cc1cc(C)c(/C=C2\C(=O)Nc3ccccc32)[nH]1 [Semaxanib (SU5416)]
3. c1ccc2c(-c3cnn4cc(-c5ccc(N6CCNCC6)cc5)cnc34)ccnc2c1

Solution:
92.6
98
112
